# target: human 5-HT1A receptors (Homo sapiens, UniProt P08908)
# Construct: expressed in transfected cells; host or cells: CHO cells
# Sequence (P08908 1-422): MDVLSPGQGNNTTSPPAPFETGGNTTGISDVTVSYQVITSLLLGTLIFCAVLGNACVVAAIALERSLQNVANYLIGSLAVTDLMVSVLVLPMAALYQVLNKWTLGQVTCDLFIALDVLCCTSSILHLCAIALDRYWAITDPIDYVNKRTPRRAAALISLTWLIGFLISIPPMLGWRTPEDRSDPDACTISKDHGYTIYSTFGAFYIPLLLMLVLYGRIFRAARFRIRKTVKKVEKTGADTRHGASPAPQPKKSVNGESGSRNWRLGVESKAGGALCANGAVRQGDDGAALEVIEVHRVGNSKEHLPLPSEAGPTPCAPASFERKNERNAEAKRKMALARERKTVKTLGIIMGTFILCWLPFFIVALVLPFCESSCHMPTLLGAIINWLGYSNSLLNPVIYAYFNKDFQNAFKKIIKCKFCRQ
# method-summary: [3H] 8-OHDPAT displacement from 5-HT1A receptor in transfected CHO cells
# Format: binding
property: Ki (nM)
Give the quantity in nM, number only.

{"molecule": "Fc1ccc2scc(C3=CCN(C[C@H]4COc5ccc6[nH]ccc6c5O4)CC3)c2c1", "target": "human 5-HT1A receptors (Homo sapiens, UniProt P08908)", "units-text": "nM", "Ki": 3.45}

Which Ki is listed for Cc1ccc2c3c(ccc2n1)OCC(CN1CC=C(c2cccc4ccsc24)CC1)O3 (stereo not shown) ?
34.9

Also, Cc1ccc2c3c(ccc2n1)OCC(CN1CC=C(c2csc4ccc(F)cc24)CC1)O3 (stereo not shown) please.
15.9

Also, C1=C(c2csc3ccccc23)CCN(CC2COc3ccc4ncccc4c3O2)C1 (stereo not shown) please.
14.5

====

# target: serotonin transporter (Rattus norvegicus)
# Construct: displace ^3H-paroxetine from male rat frontal cortical membranes; from tissue; host or cells: male rat frontal cortex membranes
# Sequence (P31652 whole entry): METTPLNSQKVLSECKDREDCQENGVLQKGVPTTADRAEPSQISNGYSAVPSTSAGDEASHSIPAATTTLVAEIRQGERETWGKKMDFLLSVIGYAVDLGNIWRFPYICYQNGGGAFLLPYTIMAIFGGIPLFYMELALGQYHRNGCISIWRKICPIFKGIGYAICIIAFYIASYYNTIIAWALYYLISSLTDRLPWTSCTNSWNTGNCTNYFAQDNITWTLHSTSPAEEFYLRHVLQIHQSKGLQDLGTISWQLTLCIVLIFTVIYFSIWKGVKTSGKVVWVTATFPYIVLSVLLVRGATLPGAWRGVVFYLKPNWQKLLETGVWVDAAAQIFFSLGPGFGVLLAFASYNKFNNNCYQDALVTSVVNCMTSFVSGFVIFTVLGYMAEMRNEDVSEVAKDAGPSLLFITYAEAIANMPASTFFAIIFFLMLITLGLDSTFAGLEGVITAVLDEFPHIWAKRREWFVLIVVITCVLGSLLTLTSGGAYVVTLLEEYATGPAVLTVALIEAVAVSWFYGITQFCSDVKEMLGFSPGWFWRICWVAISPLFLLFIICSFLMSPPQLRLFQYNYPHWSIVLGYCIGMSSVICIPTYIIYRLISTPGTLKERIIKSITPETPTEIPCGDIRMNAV
# method-summary: 3H-paroxetine displacement from rat frontal cortical membranes (serotonin transporter affinity)
# Type: binding
property: Ki
Kindly write the number and append the unit.

Examples with answers:
{"compound": "Cc1ccc2c3c(ccc2n1)OCC(CN1CC=C(c2cccc4ccsc24)CC1)O3 (centres unmarked)", "result": "10 nM"}
{"compound": "COc1cccc2c(C3=CCN(C[C@H]4COc5ccc6nc(C)ccc6c5O4)CC3)coc12", "result": "70 nM"}
{"compound": "Fc1ccc2scc(C3=CCN(C[C@H]4COc5ccc6[nH]ccc6c5O4)CC3)c2c1", "result": "33 nM"}
{"compound": "Cc1ccc2c3c(ccc2n1)OCC(CN1CC=C(c2csc4ccccc24)CC1)O3 (centres unmarked)", "result": "9.25 nM"}
{"compound": "C1=C(c2csc3ccccc23)CCN(CC2COc3ccc4[nH]ccc4c3O2)C1 (centres unmarked)", "result": "2.48 nM"}
{"compound": "Cc1nc2ccc3c(c2o1)OC(CN1CC=C(c2csc4ccccc24)CC1)CO3 (centres unmarked)", "result": "13 nM"}
{"compound": "C1=C(c2csc3ccccc23)CCN(CC2COc3ccc4ncccc4c3O2)C1 (centres unmarked)", "result": "8.5 nM"}

Now turn to the next compound.
Which Ki is listed for Cc1ccc2c3c(ccc2n1)OCC(CN1CC=C(c2cc4ccccc4s2)CC1)O3 (centres unmarked) ?
78 nM
